ASSAY TARGET: T1, cynomolgus monkey 4-1BB (cynomolgus monkey)
T1 construct: whole, on cells; also called CHO-K1-cyno 4-1BB; CHO-K1/cyno4-1BB
ASSAY REMARKS: FACS, CHO-K1/cyno 4-1BB cells [E]
I'd be grateful if you could share measured Maximum MFI for these entries.
Give bare numbers, in MFI.

binder="PR001830 (antibody, human IgG1, V domains shown, anti-4-1BB HCAb, human IgG1 Fc) VH: EVQLLESGGGLVQPGGSLRLSCTASGFTFSNYAMSWVRQAPEKGLEWVSSISGSGGSTFYADSVKGRFTISRDNSKNTLYLQMNSLRAEDTAVYFCAKEGSSETDDHYYNVDVWGQGTTVTVSS" value_reported=14000
binder="PR001836 (antibody, human IgG1, V domains shown, anti-4-1BB HCAb, human IgG1 Fc) VH: EVQLLESGGGLVQPGGSLRLSCAASGFIFSNFAMTWVRQPPEKGLKWVSSINGSGFNTYYTDSVKGRFTISRDNSRNTLYLQMNRLTAEDTAVYFCAKEGSSETDDHYYNVDVWGQGTTVTVSS" value_reported=15900
binder="PR001833 (antibody, human IgG1, V domains shown, anti-4-1BB HCAb, human IgG1 Fc) VH: EVQLLESGGGLVQPGGSLRLSCAASGFTFSSYAMSWVRQAPEKGLEWVSSISGSGGSTFYADSVKGRFTISRDNSKNTLYLQMNSLRAEDTAVYFCAKEGATETDDYHFNTDVWGQGTTVTVSS" value_reported=12600

Moving on to another binder below.
stdin: Can you share its Maximum MFI? I mean this binder: Utomilumab analog (PR000483) (antibody, human IgG2, lambda, V domains shown, anti-4-1BB control antibody; also called Tab) VH: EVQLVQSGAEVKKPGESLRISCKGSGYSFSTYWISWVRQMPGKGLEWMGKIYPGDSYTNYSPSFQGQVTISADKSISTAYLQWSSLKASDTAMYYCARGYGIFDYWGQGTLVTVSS VL: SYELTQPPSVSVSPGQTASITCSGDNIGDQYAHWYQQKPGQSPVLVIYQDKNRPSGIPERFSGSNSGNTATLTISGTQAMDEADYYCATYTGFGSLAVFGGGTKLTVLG
stdout: 11000
